Please go through the items and note down their pIC50.
target: human P2X7 receptor (Homo sapiens, UniProt Q99572, R270H/Y155H); experiment: Evaluation of human P2X7 receptor inhibitory activity (Yo-Pro uptake, BzATP stimulation, FLIPR TETRA); assay type: cell-based; conditions: antagonistic activity for the human P2X7 receptor; read-out: IC50
pIC50: −log10 of the molar value.

INPUT: Provide only the value of recorded pIC50 for `COc1ccc(Nc2nc(=O)cnn2Cc2cccc(F)c2)c(C)c1`
OUTPUT: > 8.00

INPUT: Provide only the value of recorded pIC50 for `COc1cn(Cc2ccc(F)c(Cl)c2)c(Nc2cc(OC(F)(F)F)ccc2C)nc1=O`
OUTPUT: 7.00 to 8.00

INPUT: Provide only the value of recorded pIC50 for `COc1cn(Cc2ccccc2)c(Nc2cc3ncccc3cc2C)nc1=O`
OUTPUT: 6.30 to 7.00

INPUT: Provide only the value of recorded pIC50 for `COc1c(C)ccc(Nc2nc(=O)c(OC)cn2Cc2cc(F)cc(Cl)c2)c1C`
OUTPUT: 7.00 to 8.00

INPUT: Provide only the value of recorded pIC50 for `COc1cn(Cc2ccc(F)c(C(F)(F)F)c2)c(Nc2cccc(Cl)c2C)nc1=O`
OUTPUT: 7.00 to 8.00

INPUT: Provide only the value of recorded pIC50 for `O=c1nc(Nc2cccc3[nH]ccc23)n(Cc2cc(F)cc(F)c2)cc1F`
OUTPUT: > 8.00

INPUT: Provide only the value of recorded pIC50 for `Cc1nc2[nH]ccc2cc1Nc1nc(=O)c(F)cn1Cc1cc(F)c(F)c(F)c1`
OUTPUT: 7.00 to 8.00

INPUT: Provide only the value of recorded pIC50 for `COc1cn(Cc2ccc(F)c(F)c2)c(Nc2cc(S(C)(=O)=O)c(C)cc2C)nc1=O`
OUTPUT: 7.00 to 8.00
